Each entry below carries its recorded TGI.
Test system: OVCAR-5 ovarian
ASSAY PROTOCOL: NCI tumour cell line growth inhibition, 48 h
Expressed in µM, but write only the number.

The cases that follow already have their TGI on record.
>>> value_observed("O=C1NC(=C(Cl)Cl)/C(=N/S(=O)(=O)N2CCCCC2)N1")
3.63
>>> value_observed("CC1=C(C(=O)OC2CC3CCC2(C)C3(C)C)C2Nc3ccccc3N(C)C2O1 (configuration not stated)")
25.9
>>> value_observed("COc1cc(/C=C/c2cc(/C=C/c3ccc(O)c(OC)c3)n(C(=O)c3ccc(Cl)cc3)n2)ccc1O")
18.2

Turning to the following compound.
Per the record, CC(C)[N+]([O-])(CCCNc1c2ccccc2nc2cccc([N+](=O)[O-])c12)C(C)C has TGI of 1.31
